Experiment: Absorption maximum (λ max) in H2O
Format: physicochemical
Measure: λ max (nm) in H2O

Structure Notation: O=C(O)CCNc1ccc2cc(S(=O)(=O)O)cc(O)c2c1N=Nc1ccc(Nc2nc(SCCCS(=O)(=O)O)nc(SCCCS(=O)(=O)O)n2)cc1S(=O)(=O)O
Endpoint Unit: nm
λ max (nm) in H2O: 535

Structure Notation: CC(=O)Nc1cc(Nc2nc(SCCCS(=O)(=O)O)nc(SCCCS(=O)(=O)O)n2)ccc1N=Nc1cc(S(=O)(=O)O)c2cccc(S(=O)(=O)O)c2c1
Endpoint Unit: nm
λ max (nm) in H2O: 394

Structure Notation: COc1cc(N=Nc2cccc(S(=O)(=O)O)c2)c(C)cc1Nc1nc(SCCCCS(=O)(=O)O)nc(SCCCCS(=O)(=O)O)n1
Endpoint Unit: nm
λ max (nm) in H2O: 383

Structure Notation: Cc1cc(Nc2nc(SCCCS(=O)(=O)O)nc(SCCCS(=O)(=O)O)n2)ccc1N=Nc1cc(S(=O)(=O)O)c2cccc(S(=O)(=O)O)c2c1
Endpoint Unit: nm
λ max (nm) in H2O: 383

Structure Notation: O=S(=O)(O)CCCSc1nc(Nc2ccc(N=Nc3c(S(=O)(=O)O)cc4cccc(NS(=O)(=O)c5ccc(Br)cc5)c4c3O)c(S(=O)(=O)O)c2)nc(SCCCS(=O)(=O)O)n1
Endpoint Unit: nm
λ max (nm) in H2O: 526

Structure Notation: O=C(Nc1cc(S(=O)(=O)O)cc2cc(S(=O)(=O)O)c(N=Nc3cc(Nc4nc(SCCCS(=O)(=O)O)nc(SCCCS(=O)(=O)O)n4)ccc3S(=O)(=O)O)c(O)c12)c1ccccc1
Endpoint Unit: nm
λ max (nm) in H2O: 512

Structure Notation: COc1ccc(N=Nc2c(S(=O)(=O)O)cc3cc(S(=O)(=O)O)cc(Nc4nc(SCCCS(=O)(=O)O)nc(SCCCS(=O)(=O)O)n4)c3c2O)cc1S(=O)(=O)O
Endpoint Unit: nm
λ max (nm) in H2O: 555

Structure Notation: COc1cc(S(=O)(=O)O)c(N=Nc2c(NCCC#N)ccc3cc(S(=O)(=O)O)cc(O)c23)cc1Nc1nc(SCCCS(=O)(=O)O)nc(SCCCS(=O)(=O)O)n1
Endpoint Unit: nm
λ max (nm) in H2O: 542

Structure Notation: Cc1ccc(N=Nc2c(S(=O)(=O)O)cc3cc(S(=O)(=O)O)cc(Nc4nc(SCCCS(=O)(=O)O)nc(SCCCS(=O)(=O)O)n4)c3c2O)c(S(=O)(=O)O)c1
Endpoint Unit: nm
λ max (nm) in H2O: 543

Structure Notation: Cc1cc(N=Nc2c(Nc3c(C)cccc3C)ccc3cc(S(=O)(=O)O)cc(O)c23)c(S(=O)(=O)O)cc1Nc1nc(SCCCS(=O)(=O)O)nc(SCCCS(=O)(=O)O)n1
Endpoint Unit: nm
λ max (nm) in H2O: 529

###

Experiment: Absorption maximum (λ max) in H2O
Assay type: physicochemical
Measure: λ max (nm) in H2O

Structure Notation: O=S(=O)(O)CCCSc1nc(Nc2ccc(S(=O)(=O)O)c3cc(S(=O)(=O)O)c(N=Nc4ccc5c(S(=O)(=O)O)cccc5c4S(=O)(=O)O)c(O)c23)nc(SCCCS(=O)(=O)O)n1
Endpoint Unit: nm
λ max (nm) in H2O: 543

Structure Notation: Cc1ccc(S(=O)(=O)Nc2cc(S(=O)(=O)O)cc3cc(S(=O)(=O)O)c(N=Nc4cc(Nc5nc(SCCCS(=O)(=O)O)nc(SCCCS(=O)(=O)O)n5)ccc4S(=O)(=O)O)c(O)c23)cc1
Endpoint Unit: nm
λ max (nm) in H2O: 527

Structure Notation: Nc1ccc2cc(S(=O)(=O)O)cc(O)c2c1N=Nc1ccc(Nc2nc(SCCCS(=O)(=O)O)nc(SCCCS(=O)(=O)O)n2)cc1S(=O)(=O)O
Endpoint Unit: nm
λ max (nm) in H2O: 518

Structure Notation: CCCCCC(=O)Nc1cc(S(=O)(=O)O)cc2cc(S(=O)(=O)O)c(N=Nc3cc(Nc4nc(SCCCS(=O)(=O)O)nc(SCCCS(=O)(=O)O)n4)c(OC)cc3S(=O)(=O)O)c(O)c12
Endpoint Unit: nm
λ max (nm) in H2O: 530

Structure Notation: COc1cc(N=Nc2cc(S(=O)(=O)O)c3cccc(S(=O)(=O)O)c3c2)c(C)cc1Nc1nc(SCCCS(=O)(=O)O)nc(SCCCS(=O)(=O)O)n1
Endpoint Unit: nm
λ max (nm) in H2O: 401
